- study-system: Mcl-1 (Homo sapiens, UniProt Q07820)
- Sequence (Q07820 whole entry, species assumed): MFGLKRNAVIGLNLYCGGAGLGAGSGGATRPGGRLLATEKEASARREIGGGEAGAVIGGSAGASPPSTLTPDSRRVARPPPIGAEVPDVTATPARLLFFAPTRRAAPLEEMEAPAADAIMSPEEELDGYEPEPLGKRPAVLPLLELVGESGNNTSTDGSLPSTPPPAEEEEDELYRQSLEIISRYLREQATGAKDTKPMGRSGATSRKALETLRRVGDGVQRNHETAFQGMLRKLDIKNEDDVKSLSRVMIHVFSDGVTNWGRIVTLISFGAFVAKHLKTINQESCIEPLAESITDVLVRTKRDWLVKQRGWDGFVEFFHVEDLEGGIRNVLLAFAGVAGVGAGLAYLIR
- assay-method-text: Inhibition of Mcl-1 (disruption of Mcl-1/Bim interaction)
- Format: binding
- protocol-conditions: compound at 25 μM
So basically: is % Inhibition (25 μM) Mcl-1 under 20%? Then True. Not under? Then False.

Previously resolved entries follow.
NS(=O)(=O)c1ccc(CN(CCSc2ccccc2)Cc2ccc(S(=O)(=O)NC(=O)CC3Sc4ccccc4NC3=O)cc2)cc1 (stereo not drawn)
True
CCOc1ccc(-c2ccc3c(c2)c(C(=O)NS(=O)(=O)c2ccc(CNc4cccc([N+](=O)[O-])c4)cc2)cn3C)cc1F
True
CC(C)(C)c1ccc(-c2ccc(S(=O)(=O)NC(=O)c3ccc4c(ccn4Cc4ccc(C(F)(F)F)cc4C(F)(F)F)c3)cc2)cc1
False
O=C(NS(=O)(=O)c1ccc(-c2cc3ccccc3s2)cc1)c1ccc(CN2C(=O)C(c3ccc(F)cc3F)=C(c3ccc(F)cc3F)C2=O)cc1
True
COc1ccccc1-c1ccc(C(=O)NS(=O)(=O)c2ccc(CN(CCSc3ccccc3)Cc3ccc(S(N)(=O)=O)cc3)cc2)cc1
False

% Inhibition (25 μM) Mcl-1 strictly < 20% for this compound? COc1cccc(CN(CCSc2ccccc2)Cc2ccc(S(=O)(=O)NC(=O)c3ccc4c(c3)c(C(=O)c3cccs3)cn4C)cc2)c1
False

----------
- study-system: Bcl-XL (Homo sapiens, UniProt Q07817)
- Sequence (Q07817 whole entry, species assumed): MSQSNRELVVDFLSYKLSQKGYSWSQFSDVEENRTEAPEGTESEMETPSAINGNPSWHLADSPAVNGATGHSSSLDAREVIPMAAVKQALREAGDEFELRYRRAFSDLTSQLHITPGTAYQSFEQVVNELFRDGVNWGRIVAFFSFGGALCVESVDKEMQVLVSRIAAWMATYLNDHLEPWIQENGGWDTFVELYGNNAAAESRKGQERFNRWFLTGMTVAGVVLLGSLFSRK
- assay-method-text: Inhibition of Bcl-XL (disruption of Bcl-XL/Bim interaction)
- Type: binding
- protocol-conditions: compound at 50 μM
quantity-kind: % Inhibition (50 μM) Bcl-XL

These solved cases illustrate the format of a correct answer.
Cn1cc(C(=O)C2CCCCC2)c2cc(C(=O)NS(=O)(=O)c3ccc(CN(CCSc4ccccc4)Cc4ccc5c(c4)OCO5)cc3)ccc21 [SZ31TA40]
<2.0%
O=C(NS(=O)(=O)c1ccc(CN(CCSc2ccccc2)Cc2c(F)cccc2Cl)cc1)c1ccc(-c2ccc(F)cc2)cc1 [SZ15TA14]
23.2%

Please examine the following record next.
Which % Inhibition (50 μM) Bcl-XL is listed for O=C(NS(=O)(=O)c1ccc(-c2cc3ccccc3s2)cc1)c1ccc(CN2C(=O)C(c3ccc(F)cc3F)=C(c3ccc(F)cc3F)C2=O)cc1 [SZ37TA42] ?
<2.0%

----------
- study-system: Mcl-1 (Homo sapiens, UniProt Q07820)
- assay-method-text: Inhibition of Mcl-1 (disruption of Mcl-1/Bim interaction)
- Format: binding
- protocol-conditions: compound at 50 μM
# % Inhibition (50 μM) Mcl-1 per entry
Could you give me the number in %? Just the number is fine.

COc1cccc(CN(CCSc2ccccc2)Cc2ccc(S(=O)(=O)NC(=O)CCCN3C(=O)C(c4ccc(F)cc4F)=C(c4ccc(F)cc4F)C3=O)cc2)c1
12.4

Note: attention shifts to another entry.
Data request, read-out % Inhibition (50 μM) Mcl-1, for O=C(NS(=O)(=O)c1ccc(-c2ccc(Oc3ccccc3)cc2)cc1)c1cccc2ccccc12
87.8

----------
- study-system: Bcl-XL (Homo sapiens, UniProt Q07817)
- assay-method-text: Inhibition of Bcl-XL (disruption of Bcl-XL/Bim interaction)
- Format: binding
- protocol-conditions: compound at 25 μM
Measured inhibition at 25 µM determines class: A (below 10%), B (10% to below 30%), C (30% or more)

COc1cc(OC)cc(C(=O)NS(=O)(=O)c2ccc(CN(CCSc3ccccc3)Cc3ccc(S(=O)(=O)N=[N+]=[N-])cc3)cc2)c1
A

Lab log: O=C(NS(=O)(=O)c1ccc(NCCSc2ccccc2)c([N+](=O)[O-])c1)c1ccc2c(ccn2Cc2ccc(C(F)(F)F)cc2C(F)(F)F)c1 — assign inhibition at 25 µM category
C

Into which bin does this compound go? CN(C)C(=O)c1cccc(-c2ccc(S(=O)(=O)NC(=O)c3ccc(CN4C(=O)C(c5ccc(F)cc5F)=C(c5ccc(F)cc5F)C4=O)cc3)cc2)c1
B

Into which bin does this compound go? [N-]=[N+]=NS(=O)(=O)c1ccc(CN(CCSc2ccccc2)Cc2ccc(S(=O)(=O)NC(=O)CCCN3C(=O)C(c4ccc(F)cc4F)=C(c4ccc(F)cc4F)C3=O)cc2)cc1
A

Input O=C(NS(=O)(=O)c1ccc(CN(CCSc2ccccc2)Cc2ccc3c(c2)OCO3)cc1)c1ccc(OC(F)(F)F)cc1 ; output its category
A

Kindly state the category for this compound: [N-]=[N+]=NS(=O)(=O)c1ccc(CN(CCSc2ccccc2)Cc2ccc(S(=O)(=O)NC(=O)c3ccc(-c4ccccn4)cc3)cc2)cc1
B

Returns: class label. Input: O=C(NS(=O)(=O)c1ccc(CNc2cccc([N+](=O)[O-])c2)cc1)c1ccc(CN2C(=O)C(c3ccc(F)cc3F)=C(c3ccc(F)cc3F)C2=O)cc1
B

Form field 'band' for COc1cc2c(cc1OC)C(c1ccccc1)N(Cc1ccc(S(=O)(=O)NC(=O)CCCN3C(=O)C(c4ccc(F)cc4F)=C(c4ccc(F)cc4F)C3=O)cc1)CC2 (centres unmarked)
A

Field: class (inhibition at 25 µM) — entry: COc1ccc(Cc2ccc(C(=O)NS(=O)(=O)c3ccc(CN(CCSc4ccccc4)Cc4ccc5c(c4)OCO5)cc3)cc2)c(OC)c1OC
A

Please report the category associated with [N-]=[N+]=NS(=O)(=O)c1ccc(CN(CCSc2ccccc2)Cc2ccc(S(=O)(=O)NC(=O)c3ccc(CCc4ccccn4)cc3)cc2)cc1 , nothing else.
C

Kindly state the category for this compound: O=C(NS(=O)(=O)c1ccc(CN(CCSc2ccccc2)Cc2c(F)cccc2Cl)cc1)c1ccc(-c2ccccn2)cc1
C

Just checking, what class would you give O=C(NS(=O)(=O)c1ccc(CN(CCSc2ccccc2)Cc2c(F)cccc2Cl)cc1)c1ccc(CCc2ccccn2)cc1 here?
C
